Test system: MDA-MB-231
TEST_DESCRIPTION: Anticancer activity against human MDA-MB-231 cells assessed as reduction in cell viability measured after 72 hrs by MTT assay
Format: functional, cell-based
ASSAY_CONDITIONS: MDA-MB-231, 72 h
QUANTITY_KIND: IC50 (µM)

* O=c1[nH]cc(F)c(=O)[nH]1 | 13

----------
Test system: P388
TEST_DESCRIPTION: Anticancer activity against mouse P388 cells assessed as reduction in cell growth
Format: functional, cell-based
pIC50: −log10 of the molar value.
Each entry below carries its recorded pIC50.
QUANTITY_KIND: pIC50

- CC(=O)OC1=C(C[C@]2(C)[C@@H](C)CC[C@]3(C)C(C)=CCC[C@@H]23)C(=O)C=CC1=O: 7.52
- CC1=CCC[C@H]2[C@](C)(CC3=CC(=O)C=C(O)C3=O)[C@@H](C)CC[C@]12C: 8.74
- CC1=CCC[C@H]2[C@](C)(CC3=C(O)C(=O)C=C(O)C3=O)[C@@H](C)CC[C@]12C: 8.44
